assay.details: self-splicing fitness, log relative to wild type (ln ratio); higher = more splicing; Tetrahymena group I intron in knt gene, E. coli kanamycin selection, DiMSum; sequences stand for … in CUCUCU…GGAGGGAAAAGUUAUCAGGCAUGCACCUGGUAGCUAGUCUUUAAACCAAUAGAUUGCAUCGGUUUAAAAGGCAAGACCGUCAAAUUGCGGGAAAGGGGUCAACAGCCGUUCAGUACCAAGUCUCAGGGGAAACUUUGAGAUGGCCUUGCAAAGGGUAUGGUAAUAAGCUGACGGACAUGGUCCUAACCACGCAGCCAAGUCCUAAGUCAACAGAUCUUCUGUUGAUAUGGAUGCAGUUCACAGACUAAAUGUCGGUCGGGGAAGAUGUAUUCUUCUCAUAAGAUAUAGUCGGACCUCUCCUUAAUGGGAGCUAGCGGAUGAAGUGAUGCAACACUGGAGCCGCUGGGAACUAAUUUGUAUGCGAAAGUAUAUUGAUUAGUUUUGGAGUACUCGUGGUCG;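 note: selection with 25 µg/mL kanamycin versus none on LB agar overnight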
run.conditions: 30 °C

biopolymer.sequence	self-splicing fitness (ln)
AGCCAGCAAUAUUACGGGCG	-2.66
CCUGAGCAAUAUUACGCAAA	-2.19
UUUUAGCAAUAUUACGGGCG	-0.356
AUUCAGCAAUAUUACGGCUG	-1.86
ACAAAGCAAUAUUACGGUAG	-3.48
GAUAAGCAAUAUUACGUUAC	-2.69
UGGGAGCAAUAUUACGAAUG	-1.99
AUAAAGCAAUAUUACGCUUU	-4.03
CGGAAGCAAUAUUACGAUAG	-1.11
UGAGAGCAAUAUUACGCGUU	-3.23
GUGAAGCAAUAUUACGGUGU	-1.8
CAGAAGCAAUAUUACGCGUG	-4.79
AAAGAGCAAUAUUACGGAGC	-2.8
ACGGAGCAAUAUUACGCUAG	-2.63
CCAAAGCAAUAUUACGGGGU	-3.24
ACACAGCAAUAUUACGGGAC	-3.3
CUCCAGCAAUAUUACGUCUU	-4.45
GGAUAGCAAUAUUACGCUUG	-1.81
AUGUAGCAAUAUUACGCUCC	-0.373
AGGCAGCAAUAUUACGUGAG	-0.654
CGUGAGCAAUAUUACGUUAG	-2.02
GAGAAGCAAUAUUACGCUUC	-2.79
CCGGAGCAAUAUUACGCAGG	-3.9
CCGCAGCAAUAUUACGCACG	-0.993
CACUAGCAAUAUUACGGCCG	0.0261
ACGAAGCAAUAUUACGCAUA	-1.44
AGUAAGCAAUAUUACGGUCA	-0.817
GUGAAGCAAUAUUACGGUGG	-1.97
UAGAAGCAAUAUUACGAAAU	-3.48
UUAAAGCAAUAUUACGUCGA	0.349
GAACAGCAAUAUUACGGUCG	-1.17
AUUUAGCAAUAUUACGUUGU	-3.01
UUUCAGCAAUAUUACGUGAA	-0.761
AUAGAGCAAUAUUACGACGG	-2.52

----------
assay.details: self-splicing fitness, log relative to wild type (ln ratio); higher = more splicing; Tetrahymena group I intron in knt gene, E. coli kanamycin selection, DiMSum; sequences stand for … in CUCUCU…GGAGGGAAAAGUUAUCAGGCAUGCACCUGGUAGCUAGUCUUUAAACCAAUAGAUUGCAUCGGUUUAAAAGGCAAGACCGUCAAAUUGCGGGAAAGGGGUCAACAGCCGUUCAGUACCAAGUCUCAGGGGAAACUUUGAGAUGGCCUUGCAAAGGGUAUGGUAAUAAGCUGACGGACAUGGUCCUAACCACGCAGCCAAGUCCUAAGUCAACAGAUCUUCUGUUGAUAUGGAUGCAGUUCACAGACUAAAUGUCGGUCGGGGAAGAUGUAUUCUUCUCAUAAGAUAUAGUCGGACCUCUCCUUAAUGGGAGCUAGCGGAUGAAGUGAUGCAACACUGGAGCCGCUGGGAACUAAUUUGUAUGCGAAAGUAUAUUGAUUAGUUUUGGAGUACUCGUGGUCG
run.conditions: 30 °C
# label = true if self-splicing fitness (ln) >= -2 else false

biopolymer.sequence	group
AUAGAGCAAUAUUACGUUCC	false
AAGAAGCAAUAUUACGAUGC	false
UAGCAGCAAUAUUACGGAUU	false
UAAUAGCAAUAUUACGCGUU	false
GGCUAGCAAUAUUACGAACG	true
CUCGAGCAAUAUUACGCUUA	false
UGUGAGCAAUAUUACGGACA	true
GGGAAGCAAUAUUACGCUAC	false
AAGGAGCAAUAUUACGCCCU	true
AGCCAGCAAUAUUACGUCUA	false
AUUUAGCAAUAUUACGAGAC	false
ACCUAGCAAUAUUACGAGAA	false
CACCAGCAAUAUUACGCGAU	false
AGUCAGCAAUAUUACGUAGG	false
UGUUAGCAAUAUUACGCUAG	true
GCUUAGCAAUAUUACGAAGA	true

----------
assay.details: self-splicing fitness, log relative to wild type (ln ratio); higher = more splicing; Tetrahymena group I intron in knt gene, E. coli kanamycin selection, DiMSum; sequences stand for … in CUCUCU…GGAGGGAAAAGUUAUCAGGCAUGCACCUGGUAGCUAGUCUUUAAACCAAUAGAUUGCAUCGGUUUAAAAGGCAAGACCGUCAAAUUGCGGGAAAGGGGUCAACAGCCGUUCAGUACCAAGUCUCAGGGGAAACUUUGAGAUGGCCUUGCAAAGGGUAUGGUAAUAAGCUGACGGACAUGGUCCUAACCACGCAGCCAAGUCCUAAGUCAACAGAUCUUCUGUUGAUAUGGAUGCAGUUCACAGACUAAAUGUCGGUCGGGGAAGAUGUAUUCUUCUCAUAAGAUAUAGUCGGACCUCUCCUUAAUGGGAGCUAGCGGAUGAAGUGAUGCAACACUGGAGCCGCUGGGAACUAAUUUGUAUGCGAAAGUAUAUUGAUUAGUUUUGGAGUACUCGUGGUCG
run.conditions: 30 °C
// reported self-splicing fitness (ln) for each item listed

biopolymer.sequence	self-splicing fitness (ln)
AGGGAGCAAUAUUACGAACA	-3.22
CCUUAGCAAUAUUACGGAGA	-3.46
AAUAAGCAAUAUUACGGGAC	-3.76
UUAUAGCAAUAUUACGCUUC	-3.49
CGGAAGCAAUAUUACGCCCG	-2.86
ACGUAGCAAUAUUACGCGGG	-2.32
UAGCAGCAAUAUUACGCUCG	-1
UUAUAGCAAUAUUACGUAUA	-2.29
GAUGAGCAAUAUUACGACCA	-3.85
UGCGAGCAAUAUUACGUCUA	-0.974
GCCUAGCAAUAUUACGCGAG	-2.33
GGUCAGCAAUAUUACGGAUG	-0.625
GUGGAGCAAUAUUACGUAGU	-2.93
CCAUAGCAAUAUUACGAUCG	-0.244
UCAGAGCAAUAUUACGGCUA	-2.46
CGAAAGCAAUAUUACGUAUC	-3.76

----------
assay.details: self-splicing fitness, log relative to wild type (ln ratio); higher = more splicing; Tetrahymena group I intron in knt gene, E. coli kanamycin selection, DiMSum; sequences stand for … in CUCUCU…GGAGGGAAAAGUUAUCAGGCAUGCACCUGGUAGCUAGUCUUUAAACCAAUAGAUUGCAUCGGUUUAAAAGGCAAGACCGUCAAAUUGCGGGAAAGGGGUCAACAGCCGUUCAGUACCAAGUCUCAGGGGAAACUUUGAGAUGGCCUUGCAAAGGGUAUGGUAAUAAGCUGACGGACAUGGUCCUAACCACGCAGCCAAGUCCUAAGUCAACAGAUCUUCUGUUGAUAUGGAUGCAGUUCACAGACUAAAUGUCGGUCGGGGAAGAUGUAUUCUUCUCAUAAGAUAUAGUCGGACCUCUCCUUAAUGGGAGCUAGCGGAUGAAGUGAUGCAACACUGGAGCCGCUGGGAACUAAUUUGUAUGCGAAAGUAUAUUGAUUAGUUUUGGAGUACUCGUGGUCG
run.conditions: 37 °C

biopolymer.sequence	self-splicing fitness (ln)
CGAUAGCAAUAUUACGACAG	0.719
AGGGAGCAAUAUUACGAACA	-1.72
GAGGAGCAAUAUUACGGGUU	-2.23
GGAGAGCAAUAUUACGGGAC	-0.231
UUGGAGCAAUAUUACGGCCU	-1.25
UUAAAGCAAUAUUACGGUCG	0.441
CUAGAGCAAUAUUACGACAG	0.734
AGACAGCAAUAUUACGAGCG	-0.405
AGCUAGCAAUAUUACGUUCA	-0.979
AACCAGCAAUAUUACGAGGU	-2.53
CCGAAGCAAUAUUACGUUCU	-3.37
GCUUAGCAAUAUUACGCUAG	-2.19
CCGGAGCAAUAUUACGUGAG	-0.689
CGUCAGCAAUAUUACGUUCC	-1.18
CCACAGCAAUAUUACGAUGG	-2.5
UAACAGCAAUAUUACGUCCG	0.0833
GGCGAGCAAUAUUACGCAUC	-1.05
ACGGAGCAAUAUUACGGGUG	-3.18
GUUGAGCAAUAUUACGUAAA	-1.73
AAAGAGCAAUAUUACGGCAG	-3.07
AAGCAGCAAUAUUACGCUUC	-2.81
AGCGAGCAAUAUUACGUUGU	-3.31
CGUGAGCAAUAUUACGCAUG	-1.13
CUCCAGCAAUAUUACGGUAG	-3.24
GAGGAGCAAUAUUACGGAAC	-0.46
UUCUAGCAAUAUUACGGGCG	-0.891
AAUUAGCAAUAUUACGUCGU	-0.862
GGCCAGCAAUAUUACGAUCU	-0.133
UCGAAGCAAUAUUACGAAGA	-0.685
AAACAGCAAUAUUACGUCAC	-2.59
ACUCAGCAAUAUUACGGCGU	0.0604
CAUGAGCAAUAUUACGCUCA	-2.18
CCCCAGCAAUAUUACGCACC	-2.32
CACCAGCAAUAUUACGGCAG	-0.218
